# System: S. pneumoniae ATCC49619
# experimental.protocol: MIC, microdilution broth method (NCCLS)
# Type: cell-based
# test.settings: Streptococcus pneumoniae, Table 1, 6-Carbamoyl-3-Acyl Macrolide Derivatives, read-out: MIC Values, D: S. pneumoniae ATCC49619
reported.property: MIC (µg/mL)
Just the number in µg/mL, nothing appended.

Report MIC, nothing else, for this compound: "CCC(=O)O[C@H]1[C@H](C)[C@@H](O[C@@H]2O[C@H](C)C[C@H](N(C)C)[C@H]2O)[C@](C)(OC(=O)NC/C=C/c2ccc(-c3ncccn3)cc2)C[C@@H](C)C(=O)[C@H](C)[C@H]2NC(=O)O[C@]2(C)[C@@H](CC)OC(=O)[C@@H]1C" 0.06

Report MIC, nothing else, for this compound: "CC[C@H]1OC(=O)[C@H](C)[C@@H](OC(=O)Cc2cccnc2)[C@H](C)[C@@H](O[C@@H]2O[C@H](C)C[C@H](N(C)C)[C@H]2O)[C@](C)(OC(=O)NC/C=C/c2cncnc2)C[C@@H](C)C(=O)[C@H](C)[C@H]2NC(=O)O[C@@]21C" 0.12

Report MIC, nothing else, for this compound: "CC[C@H](C)C(=O)O[C@H]1[C@H](C)[C@@H](O[C@@H]2O[C@H](C)C[C@H](N(C)C)[C@H]2O)[C@](C)(OC(=O)NC/C=C/c2ccc(-c3ncccn3)cc2)C[C@@H](C)C(=O)[C@H](C)[C@H]2NC(=O)O[C@]2(C)[C@@H](CC)OC(=O)[C@@H]1C" 0.06

Report MIC, nothing else, for this compound: "CC[C@H]1OC(=O)[C@H](C)[C@@H](OC(=O)Cc2ccccn2)[C@H](C)[C@@H](O[C@@H]2O[C@H](C)C[C@H](N(C)C)[C@H]2O)[C@](C)(OC(=O)NC/C=C/c2cnc3ccccc3c2)C[C@@H](C)C(=O)[C@H](C)[C@H]2NC(=O)O[C@@]21C" 0.03

Report MIC, nothing else, for this compound: "CC[C@H]1OC(=O)[C@H](C)[C@@H](OC(=O)Cc2cccnc2)[C@H](C)[C@@H](O[C@@H]2O[C@H](C)C[C@H](N(C)C)[C@H]2O)[C@](C)(OC(=O)NC/C=C/c2cnc(C3CC3)nc2)C[C@@H](C)C(=O)[C@H](C)[C@H]2NC(=O)O[C@@]21C" 0.06

Report MIC, nothing else, for this compound: "CC[C@H]1OC(=O)[C@H](C)[C@@H](OC(=O)C(C)C)[C@H](C)[C@@H](O[C@@H]2O[C@H](C)C[C@H](N(C)C)[C@H]2O)[C@](C)(OC(=O)NC/C=C/C=C/c2ccccn2)C[C@@H](C)C(=O)[C@H](C)[C@H]2NC(=O)O[C@@]21C" 0.06

Report MIC, nothing else, for this compound: "CC[C@H]1OC(=O)[C@H](C)[C@@H](OC(=O)Cc2cccnc2)[C@H](C)[C@@H](O[C@@H]2O[C@H](C)C[C@H](N(C)C)[C@H]2O)[C@](C)(OC(=O)NC/C=C/C=C/c2ccccn2)C[C@@H](C)C(=O)[C@H](C)[C@H]2NC(=O)O[C@@]21C" 0.03

Report MIC, nothing else, for this compound: "CC[C@H]1OC(=O)[C@H](C)[C@@H](OC(=O)/C=C/c2cccnc2)[C@H](C)[C@@H](O[C@@H]2O[C@H](C)C[C@H](N(C)C)[C@H]2O)[C@](C)(OC(=O)NC/C=C/c2ccc(-c3ncccn3)cc2)C[C@@H](C)C(=O)[C@H](C)[C@H]2NC(=O)O[C@@]21C" 0.12

Report MIC, nothing else, for this compound: "CC[C@H]1OC(=O)[C@H](C)[C@@H](OC(=O)Cc2cccnc2)[C@H](C)[C@@H](O[C@@H]2O[C@H](C)C[C@H](N(C)C)[C@H]2O)[C@](C)(OC(=O)NC/C=C/c2cnc(C(C)C)nc2)C[C@@H](C)C(=O)[C@H](C)[C@H]2NC(=O)O[C@@]21C" 0.12

Report MIC, nothing else, for this compound: "CC[C@H]1OC(=O)[C@H](C)[C@@H](OC(=O)Cc2ccccn2)[C@H](C)[C@@H](O[C@@H]2O[C@H](C)C[C@H](N(C)C)[C@H]2O)[C@](C)(OC(=O)NC/C=C/c2cccnc2)C[C@@H](C)C(=O)[C@H](C)[C@H]2NC(=O)O[C@@]21C" 0.03

Report MIC, nothing else, for this compound: "CC[C@H]1OC(=O)[C@H](C)[C@@H](OC(=O)C(C)C)[C@H](C)[C@@H](O[C@@H]2O[C@H](C)C[C@H](N(C)C)[C@H]2O)[C@](C)(OC(=O)NC/C=C/c2ccc(-c3cnccn3)cc2)C[C@@H](C)C(=O)[C@H](C)[C@H]2NC(=O)O[C@@]21C" 0.06

Report MIC, nothing else, for this compound: "CC[C@H]1OC(=O)[C@H](C)[C@@H](OC(=O)c2cnccn2)[C@H](C)[C@@H](O[C@@H]2O[C@H](C)C[C@H](N(C)C)[C@H]2O)[C@](C)(OC(=O)NC/C=C/c2ccc(-c3ncccn3)cc2)C[C@@H](C)C(=O)[C@H](C)[C@H]2NC(=O)O[C@@]21C" 0.06

Report MIC, nothing else, for this compound: "CC[C@H]1OC(=O)[C@H](C)[C@@H](OC(=O)Cc2cccnc2)[C@H](C)[C@@H](O[C@@H]2O[C@H](C)C[C@H](N(C)C)[C@H]2O)[C@](C)(OC(=O)NC/C=C/c2cccnc2)C[C@@H](C)C(=O)[C@H](C)[C@H]2NC(=O)O[C@@]21C" 0.06

Report MIC, nothing else, for this compound: "CC[C@H]1OC(=O)[C@H](C)[C@@H](OC(=O)CC2CC2)[C@H](C)[C@@H](O[C@@H]2O[C@H](C)C[C@H](N(C)C)[C@H]2O)[C@](C)(OC(=O)NC/C=C/c2ccc(-c3ncccn3)cc2)C[C@@H](C)C(=O)[C@H](C)[C@H]2NC(=O)O[C@@]21C" 0.06

---

# System: E. faecalis ATCC29212
# experimental.protocol: MIC, microdilution broth method (NCCLS)
# Format: cell-based
# test.settings: Enterococcus faecalis, Table 2, 3,6-Dicarbamoyl Macrolide Derivatives, read-out: MIC Values, C: E. faecalis ATCC29212
reported.property: MIC (µg/mL)
Just the number in µg/mL, nothing appended.

Report MIC, nothing else, for this compound: "CC[C@H]1OC(=O)[C@H](C)[C@@H](OC(=O)N(CC)CC)[C@H](C)[C@@H](O[C@@H]2O[C@H](C)C[C@H](N(C)C)[C@H]2O)[C@](C)(OC(=O)NC/C=C/c2ccc(-c3cccnn3)cc2)C[C@@H](C)C(=O)[C@H](C)[C@H]2NC(=O)O[C@@]21C" 1

Report MIC, nothing else, for this compound: "CC[C@H]1OC(=O)[C@H](C)[C@@H](OC(=O)N2CCCC2)[C@H](C)[C@@H](O[C@@H]2O[C@H](C)C[C@H](N(C)C)[C@H]2O)[C@](C)(OC(=O)NC/C=C/c2ccc(-c3ncccn3)cc2)C[C@@H](C)C(=O)[C@H](C)[C@H]2NC(=O)O[C@@]21C" 0.5

Report MIC, nothing else, for this compound: "CC[C@H]1OC(=O)[C@H](C)[C@@H](OC(=O)N2CCOCC2)[C@H](C)[C@@H](O[C@@H]2O[C@H](C)C[C@H](N(C)C)[C@H]2O)[C@](C)(OC(=O)NC/C=C/c2ccc(-c3ncccn3)cc2)C[C@@H](C)C(=O)[C@H](C)[C@H]2NC(=O)O[C@@]21C" 0.5

Report MIC, nothing else, for this compound: "CC[C@H]1OC(=O)[C@H](C)[C@@H](OC(=O)N(CC)CC)[C@H](C)[C@@H](O[C@@H]2O[C@H](C)C[C@H](N(C)C)[C@H]2O)[C@](C)(OC(=O)NC/C=C/c2ccc(-c3ncccn3)cc2)C[C@@H](C)C(=O)[C@H](C)[C@H]2NC(=O)O[C@@]21C" 0.5

Report MIC, nothing else, for this compound: "CC[C@H]1OC(=O)[C@H](C)[C@@H](OC(=O)N(CC)CC)[C@H](C)[C@@H](O[C@@H]2O[C@H](C)C[C@H](N(C)C)[C@H]2O)[C@](C)(OC(=O)NC/C=C/c2ccc(-n3cncn3)cc2)C[C@@H](C)C(=O)[C@H](C)[C@H]2NC(=O)O[C@@]21C" 0.5

Report MIC, nothing else, for this compound: "CC[C@H]1OC(=O)[C@H](C)[C@@H](OC(=O)N(CC)CCO)[C@H](C)[C@@H](O[C@@H]2O[C@H](C)C[C@H](N(C)C)[C@H]2O)[C@](C)(OC(=O)NC/C=C/c2ccc(-c3ncccn3)cc2)C[C@@H](C)C(=O)[C@H](C)[C@H]2NC(=O)O[C@@]21C" 2

Report MIC, nothing else, for this compound: "CC[C@H]1OC(=O)[C@H](C)[C@@H](OC(=O)N2Cc3cccnc3C2)[C@H](C)[C@@H](O[C@@H]2O[C@H](C)C[C@H](N(C)C)[C@H]2O)[C@](C)(OC(=O)NC/C=C/c2ccc(-c3ncccn3)cc2)C[C@@H](C)C(=O)[C@H](C)[C@H]2NC(=O)O[C@@]21C" 0.5
